Provenance of the data: patent US10889555B2

test system: various cancer cell lines as described in Table 21; experiment: Cell proliferation inhibitory effect on human cancer-derived cancer cell lines (method of Test Example 2); type: cell-based; conditions: A2780, Ovarian Cancer, 2000 cell/well, read-out: cell proliferation inhibitory effect, A2780
# thresholds on IC50 define classes: I (below 300 nM), II (300 nM to below 800 nM), III (800 nM or more)

>  <compound>
[2H]C([2H])([2H])C1(O)CCOc2c(S(=O)(=O)N[C@H](c3n[nH]c(=O)o3)[C@H](C)c3c(F)ccc(C)c3C)ccc(Cl)c21 (single isomer, unassigned) [Example 200A]

>  <discreteLabel>
I

$$$$
>  <compound>
Cc1c(Br)ccc(F)c1[C@@H](C)[C@H](NS(=O)(=O)c1ccc(Cl)c2c1OCCC2(C)O)c1n[nH]c(=O)o1 (single isomer, unassigned) [Example 222A]

>  <discreteLabel>
I

$$$$
>  <compound>
[2H]C([2H])([2H])C1(O)CCOc2c(S(=O)(=O)N[C@H](c3n[nH]c(=O)o3)[C@H](C)c3c(F)ccc(Cl)c3C)ccc(Cl)c21 (single isomer, unassigned) [Example 228A]

>  <discreteLabel>
II

$$$$
>  <compound>
Cc1ccc(F)c([C@@H](C)[C@H](NS(=O)(=O)c2ccc(Cl)c3c2OCCC3O)c2n[nH]c(=O)o2)c1C (single isomer, unassigned) [Example 235A]

>  <discreteLabel>
II

$$$$
>  <compound>
CCc1ccc(F)c([C@@H](C)[C@H](NS(=O)(=O)c2ccc(Cl)cc2C(N)=O)c2n[nH]c(=O)o2)c1C

>  <discreteLabel>
III

$$$$
>  <compound>
Cc1ccc(F)c([C@@H](C)[C@H](NS(=O)(=O)c2ccc(Br)cc2C(N)=O)c2n[nH]c(=O)o2)c1C

>  <discreteLabel>
II

$$$$
>  <compound>
Cc1c(Cl)ccc(F)c1[C@@H](C)[C@H](NS(=O)(=O)c1ccc(Cl)cc1C(N)=O)c1n[nH]c(=O)o1

>  <discreteLabel>
III

$$$$
>  <compound>
Cc1ccc(F)c([C@@H](C)[C@H](NS(=O)(=O)c2ccc(Cl)cc2C(N)=O)c2n[nH]c(=O)o2)c1C

>  <discreteLabel>
III

$$$$

###

tested on: various cancer cell lines as described in Table 21; assay: Cell proliferation inhibitory effect on human cancer-derived cancer cell lines (method of Test Example 2); format: cell-based; conditions: HLE, Liver Cancer, 3000 cell/well, read-out: cell proliferation inhibitory effect, HLE
pIC50: −log10 of the molar value.

>  <compound>
Cc1c(Br)ccc(F)c1[C@@H](C)[C@H](NS(=O)(=O)c1ccc(Cl)c2c1OCCC2(C)O)c1n[nH]c(=O)o1 (single isomer, unassigned) [Example 222A]

>  <pIC50>
6.70

$$$$
>  <compound>
Cc1ccc(F)c([C@@H](C)[C@H](NS(=O)(=O)c2ccc(Br)cc2C(N)=O)c2n[nH]c(=O)o2)c1C

>  <pIC50>
6.25

$$$$
>  <compound>
[2H]C([2H])([2H])C1(O)CCOc2c(S(=O)(=O)N[C@H](c3n[nH]c(=O)o3)[C@H](C)c3c(F)ccc(Cl)c3C)ccc(Cl)c21 (single isomer, unassigned) [Example 228A]

>  <pIC50>
6.54

$$$$

###

Tested on: various cancer cell lines as described in Table 21
Assay: Cell proliferation inhibitory effect on human cancer-derived cancer cell lines (method of Test Example 2)
Type: cell-based
Conditions: RPMI7932, Melanoma, 4000 cell/well, read-out: cell proliferation inhibitory effect, RPMI7932
Protocol: Human derived breast cancer cell line HCC 1806 cells were daily passaged at a cell density not exceeding 80% in ATCC recommended Roswell Park Memorial Institute medium (RPMI-1640) containing 10% fetal bovine serum (FBS). […] 100 μL of an extract solution (0.1 N NaH2PO4: 100% ethanol=1:1) was added to each well and mixed, and the mixture was measured at a wavelength of 540 nm using a plate reader (MTP-450 manufactured by Corona Electric Co., Ltd.). […]
# maps each entry to its IC50
quantityMeasured: IC50

>  <compound>
Cc1ccc(F)c([C@@H](C)[C@H](NS(=O)(=O)c2ccc(Cl)c3c2OCCC3O)c2n[nH]c(=O)o2)c1C (single isomer, unassigned) [Example 235A]

>  <measuredOn>
various cancer cell lines as described in Table 21

>  <result>
1230 nM

$$$$
>  <compound>
Cc1c(Br)ccc(F)c1[C@@H](C)[C@H](NS(=O)(=O)c1ccc(Cl)c2c1OCCC2(C)O)c1n[nH]c(=O)o1 (single isomer, unassigned) [Example 222A]

>  <measuredOn>
various cancer cell lines as described in Table 21

>  <result>
510 nM

$$$$
>  <compound>
Cc1ccc(F)c([C@@H](C)[C@H](NS(=O)(=O)c2ccc(Cl)cc2C(N)=O)c2n[nH]c(=O)o2)c1C

>  <measuredOn>
various cancer cell lines as described in Table 21

>  <result>
2670 nM

$$$$
